# System: IL-23-stimulated Kit225 T cells with STAT-dependent luciferase reporter
# Procedure Details: Kit225 T cell assay, STAT-dependent luciferase reporter, IL-23 stimulated
# Assay type: cell-based, human
# Measurement Context: Homo sapiens, KIT225, 20 ng/mL human recombinant IL-23, 5-6 hours, read-out: IL-23 Kit225 Reporter, LE (IC50)
Measured Attribute: IC50 (µM)
The figure you give is taken to be in µM; do not add the unit.

For record CNc1cc(Nc2cccn(-c3cnc(C(=O)N(C)C)cn3)c2=O)nn2c(C(=O)N[C@@H]3C[C@@H]3F)cnc12 [Example 256] the listed IC50 is 0.013

Quick note, IC50 for CNc1cc(Nc2ccnn(-c3ccccc3)c2=O)nn2c(C(=O)NC3CCC3)cnc12 [Example 8] landed at 0.67

Recorded IC50 (molecule CNc1cc(Nc2cccn(C3CCN(C(=O)c4ncc[nH]4)CC3)c2=O)nn2c(C(=O)NC3CC3)cnc12 [Example 245] ): 0.29

IC50 in this record for CNc1cc(Nc2cccn(-c3ccc(C)nn3)c2=O)nn2c(C(=O)NC3CC3)cnc12 [Example 63] : 0.14

IC50 in this record for CNc1cc(Nc2cccn(-c3ccc(C(F)(F)F)cc3)c2=O)nn2c(C(=O)NCC(C)(C)CO)cnc12 [Example 136] : 0.17

Entry CCCCn1cc(Cl)cc(Nc2cc(NC)c3ncc(C(=O)NC4CC4)n3n2)c1=O [Example 244] ; IC50 = 0.29

Form: molecule = CNc1cc(Nc2cccn(-c3ncc(C)cn3)c2=O)nn2c(C(=O)N[C@@H]3C[C@@H]3F)cnc12 [Example 83] ; IC50 = 0.2

The recorded IC50 for CNc1cc(Nc2cccn(-c3cc(C)n(C)n3)c2=O)nn2c(C(=O)NC3CCC3)cnc12 [Example 155] is 0.03

Given item O=C(NC1CCC1)c1cnc2c3c(c(Nc4cccn(-c5ccccn5)c4=O)nn12)OCCN3 [Example 239] , the value recorded as its IC50 is 0.21

The molecule listed as CNc1cc(Nc2cccn(-c3ccc(C(F)(F)F)cc3)c2=O)nn2c(C(=O)NCC3(CO)CC3)cnc12 [Example 133] has a reported IC50 of 0.43

So, CNc1cc(Nc2cccn(C)c2=O)nn2c(C(=O)NCC(C)(C)CO)cnc12 [Example 9] ? Its IC50 was 0.12

For reference, reported IC50 for CNc1cc(Nc2cccn(C3CCN(C(=O)C4CC4(F)F)CC3)c2=O)nn2c(C(=O)NC3CC3)cnc12 (stereo not drawn) [Example 248] stands at 0.28

Given item CNc1cc(Nc2cccn(-c3ccc(C(C)O)cn3)c2=O)nn2c(C(=O)NC3CC3)cnc12 (stereo not drawn) [compound 254] , the value recorded as its IC50 is 0.23

Field IC50 (entry CC[C@@H](C)NC(=O)c1cnc2c(NC)cc(Nc3cccn(-c4ccn(C)n4)c3=O)nn12 [Example 79] ) reads 0.14

Data point: CNc1cc(Nc2cccn(-c3cnc(C(C)(C)O)cn3)c2=O)nn2c(C(=O)N[C@@H]3C[C@@H]3F)cnc12 [Example 255] ; IC50 = 0.0308
